- Test system: Staphylococcus aureus
- assay-overview: Antibacterial activity against Staphylococcus aureus ATCC 49444 after 24 hrs by broth microdilution method
- Assay type: functional
- condition-summary: ATCC 49444, 24 h
Catalogue of compounds with associated MIC
measured-parameter: MIC

>>> value_observed("Cc1nc(-c2ccccc2)sc1-c1nnc(S)n1/N=C/c1ccc(Br)cc1")
"1.95 to 62.5 µg/mL"
>>> value_observed("Cc1nc(-c2ccccc2)sc1-c1nnc(S)n1/N=C/c1ccc(O)cc1")
"1.95 to 62.5 µg/mL"
>>> value_observed("Cc1nc(-c2ccccc2)sc1-c1nnc(S)n1/N=C/c1ccc(Cl)cc1Cl")
"1.95 to 62.5 µg/mL"
>>> value_observed("Cc1nc(-c2ccccc2)sc1-c1nnc(S)n1/N=C/c1c(Cl)cccc1Cl")
"1.95 to 62.5 µg/mL"
>>> value_observed("Cc1nc(-c2ccccc2)sc1-c1nnc(S)n1/N=C/c1ccc(F)cc1")
"1.95 to 62.5 µg/mL"
>>> value_observed("Cc1nc(-c2ccccc2)sc1-c1nnc(S)n1/N=C/c1ccccc1O")
"1.95 to 62.5 µg/mL"
>>> value_observed("Cc1nc(-c2ccccc2)sc1-c1nnc(S)n1/N=C/c1cccc([N+](=O)[O-])c1")
"1.95 to 62.5 µg/mL"
>>> value_observed("Cc1nc(-c2ccccc2)sc1-c1nnc(S)n1/N=C/c1cccc(Cl)c1")
"1.95 to 62.5 µg/mL"
>>> value_observed("Cc1nc(-c2ccccc2)sc1-c1nnc(S)n1/N=C/c1cccc(O)c1")
"1.95 to 62.5 µg/mL"
>>> value_observed("Cc1nc(-c2ccccc2)sc1-c1nnc(S)n1/N=C/c1cccc(Cl)c1Cl")
"1.95 to 62.5 µg/mL"

###

- Tested on: Escherichia coli
- assay-overview: Antibacterial activity against Escherichia coli
- Type: functional
Catalogue of compounds with associated MIC
measured-parameter: MIC

>>> value_observed("C/C=N/n1c(S)nnc1-c1ccncc1")
"10.2 to 162 µg/mL"
>>> value_observed("COc1cc(/C=N/n2c(S)nnc2-c2ccncc2)cc(OC)c1OC")
"10.2 to 162 µg/mL"
>>> value_observed("C=CC/C=N/n1c(S)nnc1-c1ccncc1")
"10.2 to 162 µg/mL"
>>> value_observed("Cc1nn(-c2ccccc2)c(-n2cncn2)c1-c1cc(-c2ccc(-c3cc[nH]c3)cc2)nc2nc3ccccc3n12")
"62.5 to 250 µg/mL"
>>> value_observed("Cc1nn(-c2ccccc2)c(-n2cncn2)c1-c1cc(-c2ccccc2)nc2nc3ccccc3n12")
"62.5 to 250 µg/mL"
>>> value_observed("Fc1ccc(/C=N/n2c(-c3ccncc3)n[nH]c2=S)cc1")
"10.2 to 162 µg/mL"

###

- System: Bacillus subtilis
- assay-overview: Antibacterial activity against Bacillus subtilis assessed as zone of inhibition
- Format: functional
Catalogue of compounds with associated inhibition zone (IZ)
measured-parameter: inhibition zone (IZ)

>>> value_observed("Fc1ccc(-c2nc(-c3ccccc3)c(-c3ccccc3)n2-n2c(-c3ccc(Cl)cc3)n[nH]c2=S)cc1")
"10 - 18 mm"
>>> value_observed("S=c1[nH]nc(-c2ccc(Cl)cc2)n1-n1c(-c2ccc(Br)cc2)nc(-c2ccccc2)c1-c1ccccc1")
"10 - 18 mm"
>>> value_observed("N#Cc1ccc(-c2nc(-c3ccccc3)c(-c3ccccc3)n2-n2c(-c3ccc(Cl)cc3)n[nH]c2=S)cc1")
"10 - 18 mm"
>>> value_observed("CN(C)[C@@H]1C(O)=C(C(N)=O)C(=O)[C@@]2(O)C(O)=C3C(=O)c4c(O)cccc4[C@@](C)(O)[C@H]3C[C@@H]12")
"14 - 17 mm"
